Entries and their viability, T/C values follow.
Tested on: 521955-158-R6-J3-PDC complex spheroid growth, % test/control
Assay Notes: Anticancer human tumor 521955-158-R6-J3-PDC patient-derived pancreatic carcinoma cell line growth inhibition [Asc]
Conditions Used: second compound 0.00949 µM; first compound 0.00316 µM; stronger effect = lower value
Measured Attribute: viability, T/C (%)

[[record]]
compound = "O=C(c1ccc(F)c(F)c1Nc1ccc(I)cc1F)N1CC(O)([C@@H]2CCCCN2)C1 + CCN1C(C(=O)NC23CCC(C(=O)O)(CC2)CC3)C(c2cccc(Cl)c2F)C2(C(=O)Nc3cc(Cl)ccc32)C12CCCCC2"
target = "521955-158-R6-J3-PDC complex spheroid growth, % test/control"
assay_result = 85.8

[[record]]
compound = "CCN1CCN(Cc2ccc(Nc3ncc(F)c(-c4cc(F)c5nc(C)n(C(C)C)c5c4)n3)nc2)CC1 + CCN1C(C(=O)NC23CCC(C(=O)O)(CC2)CC3)C(c2cccc(Cl)c2F)C2(C(=O)Nc3cc(Cl)ccc32)C12CCCCC2"
target = "521955-158-R6-J3-PDC complex spheroid growth, % test/control"
assay_result = 102

[[record]]
compound = "CNC(C)C(=O)NC1CN(S(=O)(=O)c2cccc(S(=O)(=O)N3CCC4CCC(C(=O)NC(c5ccccc5)c5ccccc5)N4C(=O)C(NC(=O)C(C)NC)C3)c2)CCC2CCC(C(=O)NC(c3ccccc3)c3ccccc3)N2C1=O (stereo not drawn) + CCN1C(C(=O)NC23CCC(C(=O)O)(CC2)CC3)C(c2cccc(Cl)c2F)C2(C(=O)Nc3cc(Cl)ccc32)C12CCCCC2"
target = "521955-158-R6-J3-PDC complex spheroid growth, % test/control"
assay_result = 110


* * *

Tested on: 521955-158-R6-J3-PDC complex spheroid growth, % test/control
Assay Notes: Anticancer human tumor 521955-158-R6-J3-PDC cell line growth inhibition [Asc];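 note: spheroids exposed to compounds for 7 days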
Conditions Used: curve of first compound; second compound 0.03 µM
Measured Attribute: IC50

[[record]]
molecule = "NC1CCC(NC2CC2c2ccccc2)CC1 (stereo unspecified) + CCN1C(C(=O)NC23CCC(C(=O)O)(CC2)CC3)C(c2cccc(Cl)c2F)C2(C(=O)Nc3cc(Cl)ccc32)C12CCCCC2"
measured_attribute = "IC50"
assay_result = "> 100 nM"

[[record]]
molecule = "Cc1nc(N2CCC3(CC2)COC(C)C3N)c(CO)nc1Sc1ccnc(N)c1Cl (stereo unspecified) + CCN1C(C(=O)NC23CCC(C(=O)O)(CC2)CC3)C(c2cccc(Cl)c2F)C2(C(=O)Nc3cc(Cl)ccc32)C12CCCCC2"
measured_attribute = "IC50"
assay_result = "> 3000 nM"

[[record]]
molecule = "CCN1CCN(Cc2ccc(Nc3ncc(F)c(-c4cc(F)c5nc(C)n(C(C)C)c5c4)n3)nc2)CC1 + CCN1C(C(=O)NC23CCC(C(=O)O)(CC2)CC3)C(c2cccc(Cl)c2F)C2(C(=O)Nc3cc(Cl)ccc32)C12CCCCC2"
measured_attribute = "IC50"
assay_result = "> 1000 nM"

[[record]]
molecule = "NC(=O)C(=Cn1cnc(-c2cc(C(F)(F)F)cc(C(F)(F)F)c2)n1)c1cncnc1 + CCN1C(C(=O)NC23CCC(C(=O)O)(CC2)CC3)C(c2cccc(Cl)c2F)C2(C(=O)Nc3cc(Cl)ccc32)C12CCCCC2"
measured_attribute = "IC50"
assay_result = "> 300 nM"

[[record]]
molecule = "C=CC(=O)N1CCN(c2nc(=O)n(-c3c(C)ccnc3C(C)C)c3nc(-c4c(O)cccc4F)c(F)cc23)C(C)C1 (stereo unspecified) + CCN1C(C(=O)NC23CCC(C(=O)O)(CC2)CC3)C(c2cccc(Cl)c2F)C2(C(=O)Nc3cc(Cl)ccc32)C12CCCCC2"
measured_attribute = "IC50"
assay_result = "> 10000 nM"

[[record]]
molecule = "O=C(c1cc(Cc2n[nH]c(=O)c3ccccc23)ccc1F)N1CCN(C(=O)C2CC2)CC1 + CCN1C(C(=O)NC23CCC(C(=O)O)(CC2)CC3)C(c2cccc(Cl)c2F)C2(C(=O)Nc3cc(Cl)ccc32)C12CCCCC2"
measured_attribute = "IC50"
assay_result = "> 10000 nM"


* * *

System: 521955-158-R6-J3-PDC complex spheroid growth, % test/control
Assay Notes: Anticancer human tumor 521955-158-R6-J3-PDC cell line growth inhibition [Asc];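 note: spheroids exposed to compounds for 7 days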
Conditions Used: curve of first compound; second compound 0.3 µM
pIC50: −log10 of the molar value.
Measured Attribute: pIC50

[[record]]
compound = "Cc1nc(N2CCC3(CC2)COC(C)C3N)c(CO)nc1Sc1ccnc(N)c1Cl (stereo not drawn) + CCN1C(C(=O)NC23CCC(C(=O)O)(CC2)CC3)C(c2cccc(Cl)c2F)C2(C(=O)Nc3cc(Cl)ccc32)C12CCCCC2"
measured_attribute = "pIC50"
assay_result = "< 5.52"

[[record]]
compound = "O=C(c1cc(Cc2n[nH]c(=O)c3ccccc23)ccc1F)N1CCN(C(=O)C2CC2)CC1 + CCN1C(C(=O)NC23CCC(C(=O)O)(CC2)CC3)C(c2cccc(Cl)c2F)C2(C(=O)Nc3cc(Cl)ccc32)C12CCCCC2"
measured_attribute = "pIC50"
assay_result = "< 5.00"

[[record]]
compound = "NC1CCC(NC2CC2c2ccccc2)CC1 (stereo not drawn) + CCN1C(C(=O)NC23CCC(C(=O)O)(CC2)CC3)C(c2cccc(Cl)c2F)C2(C(=O)Nc3cc(Cl)ccc32)C12CCCCC2"
measured_attribute = "pIC50"
assay_result = "< 7.00"

